# target: Sortase A (Staphylococcus aureus)
# Sequence (Q9S446 1-206): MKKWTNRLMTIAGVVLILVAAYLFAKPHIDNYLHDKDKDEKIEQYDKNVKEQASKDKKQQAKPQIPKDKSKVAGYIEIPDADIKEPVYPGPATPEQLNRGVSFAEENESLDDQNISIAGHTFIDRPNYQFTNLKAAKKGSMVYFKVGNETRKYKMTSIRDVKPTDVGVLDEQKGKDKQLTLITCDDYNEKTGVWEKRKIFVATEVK
# assayInfo: Inhibition of Staphylococcus aureus SrtA deltaN24 mutant assessed as decrease in transpeptidation of IsdA (64 to 323 residues) incubated for 1.25 hrs in presence of NH2-Gly3 nucleophile by SDS-PAGE method
IC50 values for the compounds below.
Record the value in µM, omitting the unit from your answer.

1. CC(C)=CC[C@@H](O)C1=CC(=O)c2c(O)ccc(O)c2C1=O    5
2. O=C1C[C@H]2O[C@@H](CCc3ccccc3)C3=C(C(=O)C=CC3=O)[C@H]2O1    50
3. O=C1C[C@H]2O[C@H](CCc3ccccc3)C3=C(C(=O)C=CC3=O)[C@H]2O1    10

From here, focus on the item given below.
For reference, reported IC50 for `CC(C)=CC[C@H](O)C1=CC(=O)c2c(O)ccc(O)c2C1=O` stands at 5
